# EXPERIMENTAL_SYSTEM: SAPK2a (h) (Homo sapiens, UniProt Q16539)
# Sequence (Q16539 whole entry): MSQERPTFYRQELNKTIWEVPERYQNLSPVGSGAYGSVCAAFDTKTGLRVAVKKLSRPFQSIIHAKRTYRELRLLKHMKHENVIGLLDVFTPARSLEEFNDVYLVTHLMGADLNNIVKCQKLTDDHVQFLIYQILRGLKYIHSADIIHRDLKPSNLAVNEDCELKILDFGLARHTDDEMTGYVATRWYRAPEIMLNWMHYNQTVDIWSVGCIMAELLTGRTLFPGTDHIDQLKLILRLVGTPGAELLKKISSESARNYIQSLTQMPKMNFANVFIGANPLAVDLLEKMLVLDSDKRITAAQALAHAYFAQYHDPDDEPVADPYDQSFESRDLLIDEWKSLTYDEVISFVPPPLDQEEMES
# RUN_DESCRIPTION: Kinase inhibition assay (33P-ATP, P30 filter, scintillation counting): SAPK2a
# Format: biochemical
# CONDITIONS: 30µM Testsubstanz (100 µM ATP); read-out: Hemmung von Kinasen in % SAPK2a (h)
READOUT_LABEL: inhibition at 30 µM (%)
Report the value in % with no unit label.

Cn1c(-c2ccc(S(C)(=O)=O)cc2)nc2c(Sc3ccccc3)ncnc21; 36
Cn1c(C#CCCO)nc2c(Sc3ccccc3)ncnc21; 3
Nc1ncnc2ncn(Cc3ccc(F)cc3)c12; 8
Cn1cnc2c(Nc3ccc(F)cc3)ncnc21; 13
Cn1c(-c2ccc([S+](C)[O-])cc2)nc2c(Sc3ccccc3)ncnc21 (centres unmarked); 27
Fc1ccc(Cn2cnc3c(Sc4ccccc4)ncnc32)cc1; 67
Fc1ccc(Sc2ncnc3c2ncn3Cc2ccccc2)cc1; 64
C(=Cc1ncnc2[nH]cnc12)c1ccccc1; 17
COc1ncnc2ncn(Cc3ccc(F)cc3)c12; 8
c1ccc(Sc2ncnc3[nH]ccc23)cc1; 56

Q) Sample "Fc1ccc(Cn2cnc3c(Sc4ccc(F)cc4)ncnc32)cc1" — what was its inhibition at 30 µM?
A) 27

Q) Same question for "Cn1c(-c2ccccc2)nc2c(Sc3ccc(F)cc3)ncnc21" please.
A) 29

Q) Proceed to "c1ccc(Cn2cnc3c(Sc4ccccc4)ncnc32)cc1"
A) 64

Q) Moving on to the next compound: Nc1ncnc2c1ncn2Cc1ccc(F)cc1 [Verbd. 42a, 9-(4-Fluoro-benzyl)-9H-purin-6-ylamin]
A) 7

Q) Note, next up: "c1ccc(CSc2ncnc3[nH]cnc23)cc1"
A) 50

Q) Next compound up: "Fc1ccc(CSc2ncnc3[nH]cnc23)cc1"
A) 29

Q) Now consider "Cn1cnc2c(Nc3ccccc3)ncnc21" and answer again.
A) 0

---

Below, each entry is listed with its recorded Hemmung von Kinasen in % PKA (h).
# System: PKA (h)
# RUN_DESCRIPTION: Kinase inhibition assay (33P-ATP, P30 filter, scintillation counting): PKA
# Assay type: biochemical
# CONDITIONS: 30µM Testsubstanz (100 µM ATP); 40 min

Cn1c(-c2ccccc2)nc2c(Sc3ccc(F)cc3)ncnc21 [Verbd. 24]; 3%
Cn1c(-c2ccccc2)nc2c(-c3ccc(F)cc3)ncnc21 [Verbd. 41]; 0%
Cn1c(-c2ccc([S+](C)[O-])cc2)nc2c(Sc3ccccc3)ncnc21 (centres unmarked) [Verbd. 59]; 0%
Cn1c(C#CCCO)nc2c(Sc3ccccc3)ncnc21 [Verbd. 79]; 0%

// next item, Hemmung von Kinasen in % PKA (h) requested
Q) I'd like to know its Hemmung von Kinasen in % PKA (h). The molecule in question is Fc1ccc(Sc2ncnc3[nH]cnc23)cc1 [Verbd. 16, 6-(4-Fluoro-phenylsulfanyl)-9H-purin]
A) 10%

---

# EXPERIMENTAL_SYSTEM: MAPK2 (h) (Homo sapiens)
# Sequence (P28482 whole entry): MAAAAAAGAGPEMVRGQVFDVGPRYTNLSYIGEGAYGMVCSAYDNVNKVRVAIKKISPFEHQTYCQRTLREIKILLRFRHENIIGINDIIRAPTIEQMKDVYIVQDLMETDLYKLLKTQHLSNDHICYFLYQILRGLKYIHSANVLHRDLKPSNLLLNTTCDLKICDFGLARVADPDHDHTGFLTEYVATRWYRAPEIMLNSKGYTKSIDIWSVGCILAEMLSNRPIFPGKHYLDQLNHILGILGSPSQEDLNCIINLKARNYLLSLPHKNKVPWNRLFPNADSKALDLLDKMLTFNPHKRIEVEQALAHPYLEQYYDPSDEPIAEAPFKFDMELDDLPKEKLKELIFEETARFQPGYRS
# RUN_DESCRIPTION: Kinase inhibition assay: MAPK2
# Assay type: biochemical
# CONDITIONS: 30µM Testsubstanz (100 µM ATP); read-out: Hemmung von Kinasen in % MAPK2 (h)
Reported inhibition at 30 µM maps to class as: class 1 = under 1%, class 2 = from 1% up to 5%, class 3 = 5% and over

Nc1ncnc2c1ncn2Cc1ccc(F)cc1 [Verbd. 42a, 9-(4-Fluoro-benzyl)-9H-purin-6-ylamin]; class 3
Fc1ccc(Sc2ncnc3[nH]ccc23)cc1 [Verbd. 53]; class 2
c1ccc(Sc2ncnc3[nH]ccc23)cc1 [Verbd. 52]; class 2

Q) # bin lookup: classify Fc1ccc(Cn2cnc3c(Sc4ccccc4)ncnc32)cc1 [Verbd. 76] by its inhibition at 30 µM
A) class 1

Q) Another: Cn1c(-c2ccc([S+](C)[O-])cc2)nc2c(Sc3ccccc3)ncnc21 (stereo not shown) [Verbd. 59]
A) class 1

Q) Here is the next compound: Cn1c(-c2ccc(S(C)(=O)=O)cc2)nc2c(Sc3ccccc3)ncnc21 [Verbd. 62]
A) class 2

Q) Do the same for c1ccc(Cn2cnc3c(Sc4ccccc4)ncnc32)cc1 [Verbd. 74, 9-Benzyl-6-phenylsulfanyl-9H-purin] please
A) class 1

Q) Field entry: Fc1ccc(Nc2ncnc3[nH]cnc23)cc1 [Verbd. 2, (4-Fluoro-phenyl)-(9H-purin-6-yl)-amin]
A) class 3

Q) Then Cn1cnc2c(Nc3ccc(F)cc3)ncnc21 [Verbd. 14] ?
A) class 3

Q) How about Cn1c(-c2ccc([S+](C)[O-])cc2)nc2c(Sc3ccc(F)cc3)ncnc21 (stereo not shown) [Verbd. 60] ?
A) class 1

Q) Could you do the same for c1ccc(CSc2ncnc3[nH]cnc23)cc1 [Verbd. 9, 6-Benzylsulfanyl-9H-purin] , please?
A) class 3

Attribution: patent EP1444982A1
